tested on: HCV 1b genotype; assay: HCV replicon assay (HCV-neo replicon cells, wild-type); assay type: cell-based, Hepatitis C virus; settings: Hepatitis C virus, HCV 1b genotype replicon; class symbols; read-out: EC50 Range against HCV 1b
pEC50: −log10 of the molar value.
readout: pEC50

Previously resolved entries follow.
{"compound": "O=C(Nc1ccc(-c2cnc(-c3ccc(NC(=O)[C@@H]4C[C@@H](O)CN4C(=O)c4ccccc4)cc3)o2)cc1)[C@@H]1C[C@@H](O)CN1C(=O)c1ccccc1 [XY-56]", "system": "HCV 1b genotype", "experimental-result": "6.00 to 7.00"}
{"compound": "O=C(Nc1ccc(-c2cnc(-c3ccc(NC(=O)[C@@H]4C[C@@H](O)CN4C(=O)C4CC4)cc3)o2)cc1)[C@@H]1C[C@@H](O)CN1C(=O)C1CC1 [XY-57]", "system": "HCV 1b genotype", "experimental-result": "5.00 to 6.00"}
{"compound": "Cn1cncc1C(O)C(=O)N1CCC[C@H]1C(=O)Nc1ccc(-c2cnc(-c3ccc(NC(=O)[C@@H]4CCCN4C(=O)C(O)c4cncn4C)cc3)o2)cc1 (some centres unmarked) [JR-3]", "system": "HCV 1b genotype", "experimental-result": "6.00 to 7.00"}
{"compound": "COc1cccc(CC(=O)N2CCC[C@H]2C(=O)Nc2ccc(-c3cnc(-c4ccc(NC(=O)[C@@H]5CCCN5C(=O)Cc5cccc(OC)c5)cc4)o3)cc2)c1 [XY-3]", "system": "HCV 1b genotype", "experimental-result": "6.00 to 7.00"}

For CC(C)(C)O[C@@H]1C[C@@H](C(=O)Nc2ccc(-c3cnc(-c4ccc(NC(=O)[C@@H]5C[C@@H](OC(C)(C)C)CN5C(=O)CC5CC5)cc4)o3)cc2)N(C(=O)CC2CC2)C1 [XY-61] on HCV 1b genotype, measured pEC50 was 6.00 to 7.00

Assay HCV 1b genotype, sample CCCC(C)C(=O)N1CCC[C@H]1C(=O)Nc1ccc(-c2cnc(-c3ccc(NC(=O)[C@@H]4CCCN4C(=O)C(C)CCC)cc3)o2)cc1 (some centres unmarked) [XY-9] , pEC50 read: 6.00 to 7.00

###

Here the recorded EC50 is given for each entry.
test system: HCV 1b genotype; assay: HCV replicon assay (HCV-neo replicon cells, wild-type); type: cell-based, Hepatitis C virus; details: Hepatitis C virus, HCV 1b genotype replicon; class symbol; read-out: EC50 Range against HCV 1b

Known results for compounds:
{"compound": "CC(=O)N1CCC[C@H]1C(=O)Nc1ccc(-c2sc(C)nc2-c2ccc(NC(=O)[C@@H]3CCCN3C(=O)Cc3ccccc3)cc2)cc1 [Example D-42]", "readout": "EC50", "experimental-result": "1000 to 10000 nM"}
{"compound": "C[C@](O)(C(=O)N1CCC[C@H]1C(=O)Nc1ccc(-c2nnc(-c3ccc(NC(=O)[C@@H]4CCCN4C(=O)[C@](C)(O)c4ccccc4)cc3)o2)cc1)c1ccccc1 [RK-28]", "readout": "EC50", "experimental-result": "< 4.57 nM"}
{"compound": "CN(C)CC(Oc1ccc(Cl)cc1)C(=O)N1CCC[C@H]1C(=O)Nc1ccc(-c2cnc(-c3ccc(NC(=O)[C@@H]4CCCN4C(=O)C(CN(C)C)Oc4ccc(Cl)cc4)cc3)o2)cc1 (stereo partly drawn) [Example D-19]", "readout": "EC50", "experimental-result": "100 to 999 nM"}

In plain terms, CN(C)C(C(=O)N1CCC[C@H]1C(=O)Nc1ccc(-c2cnc(-c3ccc(NC(=O)[C@@H]4CCCN4C(=O)C(c4ccccc4F)N(C)C)cc3)o2)cc1)c1ccccc1F (stereo partly drawn) [Example D-4] has a documented EC50 of < 4.57 nM

###

tested on: HCV 1b genotype; assay: HCV replicon assay (HCV-neo replicon cells, wild-type); format: cell-based, Hepatitis C virus; conditions: Hepatitis C virus, HCV 1b genotype replicon; class symbol; read-out: EC50 Range against HCV 1b
Here the recorded EC50 is given for each entry.

Here's what some known entries look like.
{"compound": "Cc1nc(-c2ccc(NC(=O)[C@@H]3CCCN3C(=O)OCc3ccccc3)cc2)c(-c2ccc(NC(=O)[C@@H]3CCCN3C(=O)OCc3ccccc3)cc2)o1 [OL-5]", "experimental-result": "100 to 999 nM"}
{"compound": "O=C(Nc1ccc(-c2cnc(-c3ccc(NC(=O)N[C@@H]4CCN(C(=O)[C@@H](O)c5ccccc5)C4)cc3)o2)cc1)N[C@@H]1CCN(C(=O)[C@@H](O)c2ccccc2)C1 [FY-6]", "experimental-result": "100 to 999 nM"}
{"compound": "O=C(Nc1ccc(-c2cnc(-c3ccc(NC(=O)[C@@H]4CCCN4C(=O)OCc4ccccc4)cc3)o2)cc1)[C@@H]1CCCN1C(=O)OCc1ccccc1 [JG-1]", "experimental-result": "< 4.57 nM"}

Entry O=C(Nc1ccc(-c2n[nH]c(=O)n2-c2ccc(NC(=O)[C@@H]3CCCN3C(=O)OCc3ccccc3)cc2)cc1)[C@@H]1CCCN1C(=O)OCc1ccccc1 [OL-13] , EC50 reported as 1000 to 10000 nM

For reference, reported EC50 for O=C(Nc1ccc(-c2nnc(-c3ccc(NC(=O)[C@@H]4CCCN4C(=O)c4ccc5ccccc5n4)cc3)o2)cc1)[C@@H]1CCCN1C(=O)c1ccc2ccccc2n1 [RK-10] stands at 1000 to 10000 nM

Entry C[C@H](NC(=O)c1cccc(F)n1)C(=O)Nc1ccc(-c2nnc(-c3ccc(NC(=O)[C@H](C)NC(=O)c4cccc(F)n4)cc3)o2)cc1 [RK-29] — recorded EC50 = 1000 to 10000 nM

###

Measured pEC50, listed per entry for reference.
tested on: HCV 1b genotype; assay: HCV replicon assay (HCV-neo replicon cells, wild-type); assay type: cell-based, Hepatitis C virus; conditions: Hepatitis C virus, HCV 1b genotype replicon; class symbol; read-out: EC50 Range against HCV 1b
pEC50: −log10 of the molar value.

Record excerpt, results attached:
{"compound": "C[C@@H](C(=O)N1CCC[C@H]1C(=O)Nc1ccc(-c2ccc(-c3ccc(NC(=O)[C@@H]4CCCN4C(=O)[C@H](C)c4ccccc4)cc3)o2)cc1)c1ccccc1", "pEC50": "7.00 to 8.34"}
{"compound": "CC1(C(=O)N2CCC[C@H]2C(=O)Nc2ccc(-c3cnc(-c4ccc(NC(=O)[C@@H]5CCCN5C(=O)C5(C)CCC(=O)N5Cc5ccccc5)cc4)o3)cc2)CCC(=O)N1Cc1ccccc1 (some centres unmarked)", "pEC50": "5.00 to 6.00"}
{"compound": "O=C(Nc1ccc(-c2n[nH]nc2-c2ccc(NC(=O)[C@@H]3C[C@@H](O)CN3C(=O)Cc3ccccc3)cc2)cc1)[C@@H]1C[C@@H](O)CN1C(=O)Cc1ccccc1", "pEC50": "6.00 to 7.00"}
{"compound": "C[C@H](NC(=O)OCc1ccccc1)C(=O)Nc1ccc(-c2n[nH]c(=O)n2-c2ccc(NC(=O)[C@H](C)NC(=O)OCc3ccccc3)cc2)cc1", "pEC50": "5.00 to 6.00"}

Let us move to another entry and its pEC50.
Form: compound = `C[C@H](NC(=O)OCc1ccccc1)C(=O)Nc1ccc(-c2nc[nH]c2-c2ccc(NC(=O)[C@H](C)NC(=O)OCc3ccccc3)cc2)cc1` ; pEC50 = 7.00 to 8.34

###

system: HCV 1b genotype; experiment: HCV replicon assay (HCV-neo replicon cells, wild-type); assay type: cell-based, Hepatitis C virus; settings: Hepatitis C virus, HCV 1b genotype replicon; class symbols; read-out: EC50 Range against HCV 1b
pEC50: −log10 of the molar value.
The following compounds are shown together with reported pEC50 values.

Reference set, count: 4
{"query-smiles": "Cn1cccc1CC(=O)N1CCC[C@H]1C(=O)Nc1ccc(-c2cnc(-c3ccc(NC(=O)[C@@H]4CCCN4C(=O)Cc4cccn4C)cc3)o2)cc1", "pEC50": "6.00 to 7.00"}
{"query-smiles": "O=C(Nc1ccc(-c2cnc(-c3ccc(NC(=O)[C@@H]4CCCN4C(=O)CN4C(=O)OC[C@@H]4c4ccccc4)cc3)o2)cc1)[C@@H]1CCCN1C(=O)CN1C(=O)OC[C@@H]1c1ccccc1", "pEC50": "5.00 to 6.00"}
{"query-smiles": "CC(C)(C)O[C@@H]1C[C@@H](C(=O)Nc2ccc(-c3cnc(-c4ccc(NC(=O)[C@@H]5C[C@@H](OC(C)(C)C)CN5C(=O)[C@H]5CCCO5)cc4)o3)cc2)N(C(=O)[C@H]2CCCO2)C1", "pEC50": "6.00 to 7.00"}
{"query-smiles": "O=C(Nc1ccc(-c2cnc(-c3ccc(NC(=O)[C@@H]4CCCN4C(=O)c4cccnc4)cc3)o2)cc1)[C@@H]1CCCN1C(=O)c1cccnc1", "pEC50": "6.00 to 7.00"}

pEC50 for `Cn1ccnc1C(=O)N1CCC[C@H]1C(=O)Nc1ccc(-c2cnc(-c3ccc(NC(=O)[C@@H]4CCCN4C(=O)c4nccn4C)cc3)o2)cc1` is 5.00 to 6.00
